Please go through the items and note down their Chemokine induction Gro-α.
System: CXCL1 (Gro-α) release by human PBMC
experiment: Chemokine induction in PBMC (capture ELISA)
Format: cell-based
conditions.used: 20 μg/ml peptide, background (196) subtracted
No end group written: not given here.
Answers are plain numbers, in pg/mL.

Here's what some known entries look like.
substance	display.unit	readout.value
1009 (AIRVVRARLVRR) [compound 1009]	pg/mL	230
1046 (WIRVIRW) [compound 1046]	pg/mL	38
1022 (LRIRVIVWR) [compound 1022]	pg/mL	10
FRIRVRVIR (FRIRVRVIR-NH2) [compound 1030]	pg/mL	10

Please go through the list and note Chemokine induction Gro-α for each substance.
1. 1048 (IRWVIRW) [compound 1048]
2. 1017 (KRIVRRLVARIV) [compound 1017]
3. 1025 (RRIVKKFQIVRR) [compound 1025]

7
56
-3

Please go through the list and note Chemokine induction Gro-α for each substance.
1. 1042 (IVWIWRR) [compound 1042]
2. WIVIWRR (WIVIWRR-NH2) [compound 1043]
3. 1016 (LRIRWIFKR) [compound 1016]
4. 1047 (IIRRWWV) [compound 1047]
5. 1004 (RFWKVRVKYIRF) [compound 1004]
6. 1021 (VRLRIRVAV) [compound 1021]
7. VQLRIWVRR (VQLRIWVRR-NH2) [compound 1006]

1. 44
2. 26
3. 26
4. -1
5. 55
6. 29
7. 65

Please go through the list and note Chemokine induction Gro-α for each substance.
1. 1014 (RQVIVRRW) [compound 1014]
2. 1019 (IVVWRRQLVKNK) [compound 1019]
3. 1036 (VQFRIRVIVIRK) [compound 1036]
4. 1034 (KQFRNRLRIVKK) [compound 1034]
5. 1011 (RRWVVWRIVQRR) [compound 1011]
6. 1044 (RRWIVWI) [compound 1044]

6
5
51
60
46
1963

* * *

Tested on: MCP-3 release by human PBMC
experiment: Chemokine induction in PBMC (capture ELISA)
Assay type: cell-based
conditions.used: 100 μg/ml peptide, background (6) subtracted
Residues, ends and D or L forms follow the SMILES beside them.
Please go through the items and note down their Chemokine induction MCP-3.

Please go through the list and note Chemokine induction MCP-3 for each compound.
1. CC[C@H](C)[C@H](NC(=O)[C@H](C)N)C(=O)N[C@@H](CCCNC(=N)N)C(=O)N[C@@H](CCCNC(=N)N)C(=O)N[C@@H](Cc1c[nH]c2ccccc12)C(=O)N[C@@H](CCCNC(=N)N)C(=O)N[C@H](C(=O)N[C@@H](CCCNC(=N)N)C(=O)N[C@@H](CCCCN)C(N)=O)[C@@H](C)CC [HHC142, AIRRWRIRK] (H-AIRRWRIRK-NH2; N-terminus assumed)
2. CC[C@H](C)[C@H](NC(=O)[C@H](Cc1ccccc1)NC(=O)[C@H](CCCCN)NC(=O)[C@H](Cc1ccccc1)NC(=O)[C@H](CCCNC(=N)N)NC(=O)[C@@H](N)CCCNC(=N)N)C(=O)N[C@@H](CCCNC(=N)N)C(=O)N[C@@H](Cc1c[nH]c2ccccc12)C(=O)N[C@@H](Cc1c[nH]c2ccccc12)C(N)=O [HHC100, RRFKFIRWW] (H-RRFKFIRWW-NH2; N-terminus assumed)
3. CC[C@H](C)[C@H](NC(=O)[C@H](CCCCN)NC(=O)[C@H](CC(C)C)NC(=O)[C@@H](NC(=O)[C@@H](N)C(C)C)C(C)C)C(=O)N[C@H](C(=O)N[C@@H](CCCNC(=N)N)C(=O)N[C@@H](CCCNC(=N)N)C(=O)N[C@@H](Cc1ccccc1)C(N)=O)C(C)C [HHC148, VVLKIVRRF] (H-VVLKIVRRF-NH2; N-terminus assumed)
4. CC[C@H](C)[C@H](NC(=O)[C@H](CCCNC(=N)N)NC(=O)[C@H](C)NC(=O)[C@H](CC(C)C)NC(=O)[C@@H](N)CCCNC(=N)N)C(=O)N[C@H](C(=O)N[C@H](C(=O)N[C@H](C(=O)N[C@@H](CCCNC(=N)N)C(=O)N[C@H](C(=O)N[C@@H](C)C(=O)N[C@@H](CCCNC(=N)N)C(N)=O)C(C)C)[C@@H](C)CC)C(C)C)C(C)C [Bac2A, RLARIVVIRVAR-NH2, reference compound] (H-RLARIVVIRVAR-NH2; N-terminus assumed)
5. CC[C@H](C)[C@H](NC(=O)[C@H](CCCNC(=N)N)NC(=O)[C@H](CCCCN)NC(=O)[C@@H](NC(=O)[C@H](Cc1c[nH]c2ccccc12)NC(=O)[C@H](Cc1c[nH]c2ccccc12)NC(=O)[C@H](Cc1c[nH]c2ccccc12)NC(=O)[C@H](CCCNC(=N)N)NC(=O)[C@@H](N)CC(C)C)[C@@H](C)CC)C(N)=O [HHC57, LRWWWIKRI] (H-LRWWWIKRI-NH2; N-terminus assumed)

1. 0 pg/mL
2. 0 pg/mL
3. 3 pg/mL
4. 2 pg/mL
5. 9 pg/mL
